# Test system: pLai RLuc reporter virus
# method: HIV MT-4 serum shift antiviral reporter assay
# Type: cell-based
# assay_conditions: Human immunodeficiency virus 1, 72 h, read-out: RLUC 50% HS (nM), HS/CCM: 50% human serum, 72 h, Renilla Glo
quantity_kind: EC50 (nM)
Only the number, expressed in nM, is required.

>  <mol>
C[C@@H]1CCCCN2CN1n1cc(C(=O)NCc3c(F)cc(F)cc3F)c(=O)c(O)c1C2=O

>  <EC50 [nM]>
7.12

$$$$
>  <mol>
CO[C@@H]1C[C@@H](C)N2CN(C(=O)c3c(O)c(=O)c(C(=O)NCc4c(F)cc(F)cc4F)cn32)[C@H]1C

>  <EC50 [nM]>
4.3

$$$$
>  <mol>
C[C@@H]1CCCCN2CN1n1cc(C(=O)NCc3ccc(F)cc3F)c(=O)c(O)c1C2=O

>  <EC50 [nM]>
4.07

$$$$

API: the following record is the query input.
Supply recorded EC50 for C[C@@H]1CC[C@@H](C)N2CN1C(=O)c1c(O)c(=O)c(C(=O)NCc3ccc(F)cc3F)cn12 here.
35.3

* * *

Recorded measurements of log10 of EC50, one per entry
# Test system: pLai RLuc reporter virus
# method: HIV MT-4 serum shift antiviral reporter assay
# Assay type: cell-based
# assay_conditions: Human immunodeficiency virus 1, 72 h, read-out: RLUC 50% HS (nM), HS/CCM: 50% human serum, 72 h, Renilla Glo
Form field - Quantity: EC50; Unit: nM; Scale: log10

Please list log10 of EC50 recorded for the molecule C[C@@H]1C[C@H](F)[C@H](CF)N2CN1n1cc(C(=O)NCc3c(F)cc(F)cc3F)c(=O)c(O)c1C2=O
2.54

Check the records and state log10 of EC50 for C[C@@H]1C=CCN2CN1n1cc(C(=O)NCc3c(F)cc(F)cc3F)c(=O)c(O)c1C2=O
1.06

* * *

// reported EC50 per item
# Tested on: pLai RLuc reporter virus
# method: HIV MT-4 serum shift antiviral reporter assay
# Assay type: cell-based
# assay_conditions: Human immunodeficiency virus 1, 72 h, read-out: RLUC 50% HS (nM), HS/CCM: 50% human serum, 72 h, Renilla Glo
Lab book: enter the figure in nM, no units written.

Would you please look over these solved cases?
>  <compound>
O=C(NCc1c(F)cc(F)cc1F)c1cn2c(c(O)c1=O)C(=O)N1CCCCN2C1Cc1ccccc1 (stereo not shown)

>  <EC50 [nM]>
23.1

$$$$
>  <compound>
C[C@H]1CCC(C)(C)N2CN1C(=O)c1c(O)c(=O)c(C(=O)NCc3c(F)cc(F)cc3F)cn12

>  <EC50 [nM]>
198

$$$$
>  <compound>
C[C@H]1[C@@H](F)C[C@H](C)N2CN1C(=O)c1c(O)c(=O)c(C(=O)NCc3ccc(F)cc3F)cn12

>  <EC50 [nM]>
294

$$$$
>  <compound>
C[C@@H]1C[C@H](F)[C@H](C)N2CN1n1cc(C(=O)NCc3ccc(F)cc3F)c(=O)c(O)c1C2=O

>  <EC50 [nM]>
473

$$$$
>  <compound>
CC[C@@H]1CC[C@H](C)N2CN1n1cc(C(=O)NCc3c(F)cc(F)cc3F)c(=O)c(O)c1C2=O

>  <EC50 [nM]>
276

$$$$
>  <compound>
C[C@H]1CC[C@@H](C(F)F)N2CN1C(=O)c1c(O)c(=O)c(C(=O)NCc3ccc(F)cc3F)cn12

>  <EC50 [nM]>
723

$$$$

We now examine a further compound.
Name the recorded EC50 of the item C[C@H]1CCC[C@H](C)N2CN1C(=O)c1c(O)c(=O)c(C(=O)NCc3c(F)cc(F)cc3F)cn12 in your answer.
14.5

* * *

# method: Cytotoxicity assay in MT-4 cells
# Assay type: cell-based
# assay_conditions: human, uninfected MT-4 cells, 5 days, Cell Titer Glo; read-out: CC50
quantity_kind: CC50 at 5 days (µM)
Answer with a number only, understood to be in µM.

Known CC50 at 5 days results, listed for orientation:
>  <mol>
CC[C@H]1C=C[C@H](C)N2CN1n1cc(C(=O)NCc3c(F)cc(F)cc3F)c(=O)c(O)c1C2=O

>  <CC50 at 5 days / µM>
18.4

$$$$
>  <mol>
COC[C@@H]1CC[C@H](C)N2CN1n1cc(C(=O)NCc3ccc(F)cc3F)c(=O)c(O)c1C2=O

>  <CC50 at 5 days / µM>
30.5

$$$$
>  <mol>
C[C@@H]1CCCCN2CN1n1cc(C(=O)NCc3ccc(F)cc3F)c(=O)c(O)c1C2=O

>  <CC50 at 5 days / µM>
8.87

$$$$

Identify CC50 at 5 days associated with the molecule C[C@@H]1CCC[C@@H](C)N2CN1C(=O)c1c(O)c(=O)c(C(=O)NCc3c(F)cc(F)cc3F)cn12
16.3

Given C[C@@H]1C[C@@H](F)[C@H](C)N2CN1n1cc(C(=O)NCc3ccc(F)cc3F)c(=O)c(O)c1C2=O , respond with its CC50 at 5 days.
9.01

Identify CC50 at 5 days associated with the molecule C[C@H]1C=C[C@H](C)N2CN1C(=O)c1c(O)c(=O)c(C(=O)NCc3c(F)cc(F)cc3F)cn12
17.4

Please list CC50 at 5 days recorded for the molecule C[C@@H]1CC[C@@H](C)N2CN1C(=O)c1c(O)c(=O)c(C(=O)NCc3c(F)cc(F)cc3F)cn12
15.4

* * *

Measured EC50 by item
# Test system: HIV-1 (IIIB)
# method: Antiviral assay in MT-4 cells
# Type: cell-based
# assay_conditions: HIV-1 IIIB infected MT-4 cells, 5 days, Cell Titer Glo; read-out: MT4 EC50
# unit: nM | format: bare number

>  <compound>
C[C@H]1C=C[C@H](CF)N2CN1C(=O)c1c(O)c(=O)c(C(=O)NCc3c(F)cc(F)cc3F)cn12

>  <quantitative_readout>
8.1

$$$$
>  <compound>
C[C@@H]1C=C[C@H](CF)N2CN1n1cc(C(=O)NCc3ccc(F)cc3F)c(=O)c(O)c1C2=O [Example C49a]

>  <quantitative_readout>
1.2

$$$$

Answer briefly: EC50 recorded on HIV-1 (IIIB) for C[C@H]1CCCCN2CN1n1cc(C(=O)NCc3ccc(F)cc3F)c(=O)c(O)c1C2=O
2.1

Under HIV-1 (IIIB): report EC50 of O=C(NCc1c(F)cc(F)cc1F)c1cn2c(c(O)c1=O)C(=O)N1Cc3cc(F)ccc3CN2C1 [Example C1] .
20

* * *

# method: Monkey PK after single-dose intravenous infusion
# Assay type: in vivo, monkeys
# assay_conditions: cynomolgus, monkeys, single-dose intravenous infusion for 30 minutes, plasma, read-out: Cyno half-life (converted)
Listed next: entries and their corresponding half-life.
Could you kindly put the unit after your number?

Examples with their reported half-life follow.
>  <mol>
C[C@H]1C=C[C@@H](CF)N2CN1C(=O)c1c(O)c(=O)c(C(=O)NCc3c(F)cc(F)cc3F)cn12

>  <result>
60 h

$$$$
>  <mol>
C[C@H]1C=C[C@H](C)N2CN1C(=O)c1c(O)c(=O)c(C(=O)NCc3ccc(F)cc3F)cn12

>  <result>
6 h

$$$$
>  <mol>
C[C@@H]1C=C[C@H](C)N2CN1n1cc(C(=O)NCc3c(F)cc(F)cc3F)c(=O)c(O)c1C2=O

>  <result>
57 h

$$$$
>  <mol>
C[C@H]1CC[C@H](C)N2CN1C(=O)c1c(O)c(=O)c(C(=O)NCc3ccc(F)cc3F)cn12

>  <result>
9 h

$$$$
>  <mol>
C[C@H]1CC[C@H](C)N2CN1C(=O)c1c(O)c(=O)c(C(=O)NCc3c(F)cc(F)cc3F)cn12

>  <result>
48 h

$$$$

Look up and report measured half-life for this entry: C[C@@H]1C=C[C@H](C)N2CN1n1cc(C(=O)NCc3ccc(F)c(Cl)c3F)c(=O)c(O)c1C2=O
110 h

Input CC[C@@H]1C=C[C@H](C)N2CN1n1cc(C(=O)NCc3c(F)cc(F)cc3F)c(=O)c(O)c1C2=O , output reported half-life.
51 h

* * *

In this section, each of the molecules is paired with its reported half-life.
# method: Monkey PK after single-dose intravenous infusion
# Assay type: in vivo, monkeys
# assay_conditions: cynomolgus, monkeys, single-dose intravenous infusion for 30 minutes, plasma, read-out: Cyno half-life (converted)
Your answer should be a number followed by the unit of measure.

Previously resolved entries follow.
>  <molecule>
C[C@H]1C=C[C@H](C)N2CN1C(=O)c1c(O)c(=O)c(C(=O)NCc3c(F)cc(F)cc3F)cn12 [Example C25]

>  <quantity_kind>
half-life

>  <result>
55 h

$$$$
>  <molecule>
C[C@@H]1CC[C@H](C)N2CN1n1cc(C(=O)NCc3ccc(F)cc3F)c(=O)c(O)c1C2=O [Example C37]

>  <quantity_kind>
half-life

>  <result>
22 h

$$$$
>  <molecule>
C[C@@H]1C=C[C@H](C)N2CN1n1cc(C(=O)NCc3ccc(F)cc3F)c(=O)c(O)c1C2=O [Example C29]

>  <quantity_kind>
half-life

>  <result>
32 h

$$$$

For the molecule C[C@H]1C=C[C@@H](CF)N2CN1C(=O)c1c(O)c(=O)c(C(=O)NCc3ccc(F)cc3F)cn12 [Example C44] , give its reported half-life.
29 h

Taken from patent US11613546B2.
